Recorded values, source ChEMBL document CHEMBL4402590.

target: Voltage-gated inwardly rectifying potassium channel KCNH2 (Homo sapiens); assay: Inhibition of human ERG expressed in human HEK293 cells by whole cell patch clamp assay
Sequence (Q12809 whole entry): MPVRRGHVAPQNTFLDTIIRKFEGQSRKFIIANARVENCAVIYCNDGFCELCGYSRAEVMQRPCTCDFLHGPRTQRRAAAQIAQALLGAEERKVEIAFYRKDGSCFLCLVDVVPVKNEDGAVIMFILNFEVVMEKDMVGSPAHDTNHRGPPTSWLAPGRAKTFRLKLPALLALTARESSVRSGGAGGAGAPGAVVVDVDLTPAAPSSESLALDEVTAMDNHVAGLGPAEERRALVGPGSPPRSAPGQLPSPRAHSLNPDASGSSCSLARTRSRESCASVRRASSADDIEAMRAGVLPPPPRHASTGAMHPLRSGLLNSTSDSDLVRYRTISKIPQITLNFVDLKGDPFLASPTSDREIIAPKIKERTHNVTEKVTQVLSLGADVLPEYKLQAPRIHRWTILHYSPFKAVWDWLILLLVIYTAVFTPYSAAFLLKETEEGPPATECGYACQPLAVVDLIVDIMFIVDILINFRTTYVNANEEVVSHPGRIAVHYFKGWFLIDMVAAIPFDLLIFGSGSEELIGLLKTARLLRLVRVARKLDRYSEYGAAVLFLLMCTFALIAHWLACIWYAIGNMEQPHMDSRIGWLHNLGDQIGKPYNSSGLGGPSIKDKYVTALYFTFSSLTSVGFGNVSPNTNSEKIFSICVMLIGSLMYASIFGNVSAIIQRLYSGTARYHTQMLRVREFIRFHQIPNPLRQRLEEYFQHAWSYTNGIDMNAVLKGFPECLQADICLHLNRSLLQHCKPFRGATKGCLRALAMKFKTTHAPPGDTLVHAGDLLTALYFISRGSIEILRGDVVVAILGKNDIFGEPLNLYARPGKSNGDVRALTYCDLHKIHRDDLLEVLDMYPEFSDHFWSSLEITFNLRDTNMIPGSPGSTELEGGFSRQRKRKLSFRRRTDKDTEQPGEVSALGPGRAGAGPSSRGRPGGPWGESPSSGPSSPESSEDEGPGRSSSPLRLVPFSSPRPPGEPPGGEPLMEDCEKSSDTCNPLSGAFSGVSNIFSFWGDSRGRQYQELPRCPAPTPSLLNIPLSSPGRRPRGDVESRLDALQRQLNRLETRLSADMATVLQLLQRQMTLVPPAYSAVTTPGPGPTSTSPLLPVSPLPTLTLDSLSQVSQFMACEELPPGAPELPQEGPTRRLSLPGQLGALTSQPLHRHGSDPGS

>  <record.smiles>
[O-][S@@+](/C=C/CCN=C=S)c1cc(C(F)(F)F)cc(C(F)(F)F)c1

>  <target>
Voltage-gated inwardly rectifying potassium channel KCNH2 (Homo sapiens)

>  <IC50>
> 30 µM

$$$$

* * *

target: Exportin-1 (Homo sapiens)
Sequence (O14980 whole entry): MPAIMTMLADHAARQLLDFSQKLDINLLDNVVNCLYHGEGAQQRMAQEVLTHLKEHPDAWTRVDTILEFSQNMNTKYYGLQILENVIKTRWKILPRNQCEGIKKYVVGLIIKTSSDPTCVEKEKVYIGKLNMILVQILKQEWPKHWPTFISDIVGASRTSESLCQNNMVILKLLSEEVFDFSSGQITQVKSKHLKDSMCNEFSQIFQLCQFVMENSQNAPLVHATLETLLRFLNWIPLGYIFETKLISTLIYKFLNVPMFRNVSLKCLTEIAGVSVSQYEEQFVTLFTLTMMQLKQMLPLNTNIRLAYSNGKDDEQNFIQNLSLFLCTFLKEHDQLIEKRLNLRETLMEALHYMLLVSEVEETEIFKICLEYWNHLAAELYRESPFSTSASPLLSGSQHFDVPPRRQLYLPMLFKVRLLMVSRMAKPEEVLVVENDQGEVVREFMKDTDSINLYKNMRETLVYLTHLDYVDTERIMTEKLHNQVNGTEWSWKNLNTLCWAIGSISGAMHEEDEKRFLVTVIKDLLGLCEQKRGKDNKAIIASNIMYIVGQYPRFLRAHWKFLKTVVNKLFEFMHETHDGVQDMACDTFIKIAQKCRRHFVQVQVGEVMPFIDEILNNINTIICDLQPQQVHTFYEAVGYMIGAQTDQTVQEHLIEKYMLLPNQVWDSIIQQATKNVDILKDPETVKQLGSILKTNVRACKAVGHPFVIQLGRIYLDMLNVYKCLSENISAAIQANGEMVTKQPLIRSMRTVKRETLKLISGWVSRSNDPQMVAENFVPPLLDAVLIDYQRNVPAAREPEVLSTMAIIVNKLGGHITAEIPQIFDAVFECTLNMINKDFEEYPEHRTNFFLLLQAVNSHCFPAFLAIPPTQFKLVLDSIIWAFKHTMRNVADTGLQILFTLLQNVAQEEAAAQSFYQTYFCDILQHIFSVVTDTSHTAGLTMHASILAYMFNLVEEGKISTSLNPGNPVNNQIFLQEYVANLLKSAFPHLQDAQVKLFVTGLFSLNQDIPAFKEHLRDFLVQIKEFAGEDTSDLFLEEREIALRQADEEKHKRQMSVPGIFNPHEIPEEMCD

>  <compound>
[O-][S+](/C=C/CCN=C=S)c1ccccc1 (stereo unspecified)

>  <IC50>
1500 nM

$$$$

* * *

experiment: Stability of compound in artificial gastric juice assessed as half life; format: ADME

>  <record.smiles>
[O-][S@@+](/C=C/CCN=C=S)c1cc(C(F)(F)F)cc(C(F)(F)F)c1

>  <half-life, h>
24

$$$$

* * *

experiment: Stability of compound in artificial intestinal juice assessed as half life; assay type: ADME

>  <record.smiles>
[O-][S@@+](/C=C/CCN=C=S)c1cc(C(F)(F)F)cc(C(F)(F)F)c1

>  <units.text>
h

>  <half-life>
8

$$$$

* * *

target: Exportin-1 (Homo sapiens); test: Binding affinity to recombinant His-tagged CRM1 (unknown origin) by SPR analysis

>  <record.smiles>
[O-][S@@+](/C=C/CCN=C=S)c1cc(C(F)(F)F)cc(C(F)(F)F)c1

>  <units.text>
nM

>  <Kd>
26.9

$$$$
